Tested on: LTB4 production in murine blood (LTA4H)
Test: LTB4 production by calcium ionophore-stimulated murine blood for LTA4H inhibitor activity
Assay type: cell-based, CD-1 mice
Conditions: Mus musculus; murine blood diluted 1 in 15, A23187 stimulated; single determination or average; mark after value = form tested: ′ free base, ″ hydrochloride, ^ formate; read-out: IC50
pIC50: −log10 of the molar value. Counter-ions that a name gives are not always drawn.
A collection of compounds and their measured pIC50
Measurement type: pIC50

- CC(=O)NC1CCN(Cc2coc3cc(Oc4nc5ncccc5s4)ccc23)C1 (centres unmarked) [Example 307, formate]: 8.10
- CC(=O)N1CC2CN(Cc3coc4cc(Oc5nc6ncccc6s5)ccc34)CC2C1 (centres unmarked): 7.89
- CC(=O)N[C@H]1C[C@H]2CC[C@@H](C1)N2Cc1cc2ccc(Oc3nc4ccccc4s3)cc2s1: 6.13
- CC(=O)N1CC2CN(Cc3cc4ccc(Oc5nc6ncccc6s5)cc4o3)CC2C1 (centres unmarked): 6.82
- O=C1CCCN1C1CCN(Cc2c[nH]c3cc(Oc4nc5ccccc5s4)ccc23)CC1: 6.84
- NC(=O)N[C@H]1C[C@H]2CC[C@@H](C1)N2Cc1cc2cc(Oc3nc4ncccc4s3)ccc2o1: 6.88
- CCOC(=O)C1CCN(Cc2c[nH]c3cc(Oc4nc5cccnc5s4)ccc23)CC1: 5.07
- CC(=O)N1C[C@@H]2CC[C@H]1CN2Cc1cc2ccc(Oc3nc4ncccc4s3)cc2o1: 7.10

* * *

List of IC50 values.
Biological target: recombinant human LTA4 hydrolase (rhLTA4H) (Homo sapiens)
Construct: made in house; host or cells: Spodoptera frugiperda (Sf-9) cells, baculovirus (pFastBac1)
Test: Recombinant human LTA4 hydrolase assay for LTA4 hydrolase inhibitor activity
Assay type: biochemical
Details: rhLTA4H, LTB4 by immunoassay; single determination or average of two or more; mark after value = form tested: ′ free base, ″ hydrochloride, ^ formate; read-out: IC50
Counter-ions that a name gives are not always drawn.
Measurement type: IC50 (µM)

* NC(=O)N1C[C@@H]2C[C@H]1CN2Cc1cc2ncc(Oc3nc4ncccc4s3)cc2o1 [Example 337, formate] | 0.27
* NC(=O)N1C[C@H]2CC[C@@H](C1)N2Cc1cc2cc(Oc3nc4ncccc4s3)ccc2o1 [Example 94] | 0.102
* NC(=O)N1C[C@H]2C[C@@H]1CN2Cc1cc2ccc(Oc3nc4ncccc4s3)cc2o1 [Example 193] | 0.052
* CC(=O)N1C[C@@H]2C[C@H]1CN2CCc1coc2cc(Oc3nc4ncccc4s3)ccc12 [Example 258] | 0.022
* c1cnc2nc(Oc3ccc4c(CN5CCC(N6CCCCC6)CC5)coc4c3)sc2c1 [Example 284, formate] | 0.024
* CC(=O)N1CCN(CCc2coc3cc(Oc4nc5ncccc5s4)ccc23)CC1 [Example 257] | 0.003

* * *

Molecular target: recombinant human LTA4 hydrolase (rhLTA4H) (Homo sapiens, UniProt P09960)
Construct: made in house; host or cells: Spodoptera frugiperda (Sf-9) cells, baculovirus (pFastBac1)
Sequence (P09960 whole entry): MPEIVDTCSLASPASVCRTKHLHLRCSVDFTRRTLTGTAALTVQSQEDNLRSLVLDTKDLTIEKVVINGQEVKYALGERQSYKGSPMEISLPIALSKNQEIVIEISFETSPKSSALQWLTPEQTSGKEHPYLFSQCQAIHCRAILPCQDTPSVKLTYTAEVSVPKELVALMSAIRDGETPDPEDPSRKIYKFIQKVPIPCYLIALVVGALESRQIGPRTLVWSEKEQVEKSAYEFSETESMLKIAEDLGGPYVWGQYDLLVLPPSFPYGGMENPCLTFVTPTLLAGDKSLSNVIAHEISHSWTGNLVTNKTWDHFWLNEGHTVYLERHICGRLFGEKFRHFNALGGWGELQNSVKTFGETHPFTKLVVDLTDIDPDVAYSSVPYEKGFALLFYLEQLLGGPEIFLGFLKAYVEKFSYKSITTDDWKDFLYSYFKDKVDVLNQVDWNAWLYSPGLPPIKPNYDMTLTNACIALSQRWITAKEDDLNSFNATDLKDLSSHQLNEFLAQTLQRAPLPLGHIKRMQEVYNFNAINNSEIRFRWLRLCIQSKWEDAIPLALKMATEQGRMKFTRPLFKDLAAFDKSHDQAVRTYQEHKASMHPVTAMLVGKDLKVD
Experiment: Recombinant human LTA4 hydrolase assay for LTA4 hydrolase inhibitor activity
Assay type: biochemical
Conditions: rhLTA4H, LTB4 by immunoassay; single determination or average of two or more; mark after value = form tested: ′ free base, ″ hydrochloride, ^ formate; read-out: IC50
# maps each entry to its IC50
Measurement type: IC50 (µM)

* CC(=O)N1C[C@@H]2C[C@H]1CN2Cc1coc2cc(Oc3nc4ccccc4s3)ccc12 | 0.026
* CC(=O)N[C@H]1C[C@H]2CC[C@@H](C1)N2Cc1cc2cc(Oc3nc4cnccc4s3)ccc2o1 | 1.13
* CN(Cc1ccco1)Cc1coc2cc(Oc3nc4ncccc4s3)ccc12 | 0.06
* c1csc(CNCc2coc3cc(Oc4nc5ncccc5s4)ccc23)c1 | 0.02
* c1ccc(CC2CCN(Cc3coc4cc(Oc5nc6ncccc6s5)ccc34)CC2)cc1 | 0.044
* CN1CCC(N(C)Cc2coc3cc(Oc4nc5ncccc5s4)ccc23)CC1 | 0.024
* O=C(CO)N1CC2CN(Cc3coc4cc(Oc5nc6ncccc6s5)ccc34)CC2C1 (centres unmarked) | 0.003
* CCOC(=O)CCN(C)Cc1coc2cc(Oc3nc4ncccc4s3)ccc12 | 0.02
